# Assay text: In vivo pharmacokinetic profile in Sprague-Dawley rats
# Test parameters: Sprague-Dawley, rat, plasma, IV-JVC, 2 mg/kg
Measured metric: half-life

For the molecule shown here, `COc1ccc2c3c([nH]c2c1)[C@H](CC(C)C)N1C(=O)[C@H](C)NC(=O)[C@@H]1C3` , give the reported half-life. 54 min

----------
# Assay text: In vivo pharmacokinetic profile in Sprague-Dawley rats
# Test parameters: Sprague-Dawley, rat, plasma, IV-JVC, 2 mg/kg
Measured metric: AUC
Quick note: unit goes after the number.

For the compound shown here, `COc1ccc2c3c([nH]c2c1)[C@H](CC(C)C)N1C(=O)[C@H](C)NC(=O)[C@@H]1C3` , give the reported AUC. 4 µM·h

----------
# Assay text: In vivo pharmacokinetic profile in Sprague-Dawley rats
# Test parameters: PO-JVC, 50 mg/kg
Measured metric: Cmax (nM)
Answers are plain numbers, in nM.

For the compound shown here, COc1ccc2c3c([nH]c2c1)[C@H](CC(C)C)N1C(=O)[C@H](CCC(=O)OC(C)(C)C)NC(=O)[C@@H]1C3 [Ko143, reference compound] , give the reported Cmax. 21.4

----------
# Assay text: In vivo pharmacokinetic profile in Sprague-Dawley rats
# Test parameters: Sprague-Dawley, rat, plasma, PO-JVC, 20 mg/kg
Measured metric: AUC (µM·h)
Answers are plain numbers, in µM·h.

For the compound shown here, `COc1ccc2c3c([nH]c2c1)[C@H](CC(C)C)N1C(=O)[C@H](C)NC(=O)[C@@H]1C3` , give the reported AUC. 49

----------
# Assay text: In vivo pharmacokinetic profile in Sprague-Dawley rats
# Test parameters: Sprague-Dawley, rat, plasma, PO-JVC, 20 mg/kg
Measured metric: bioavailability (%)
Numbers only, in %.

For the compound shown here, COc1ccc2c3c([nH]c2c1)[C@H](CC(C)C)N1C(=O)[C@H](C)NC(=O)[C@@H]1C3 [Compound (I-1)] , give the reported bioavailability. 123

----------
# Assay system: CYP2C9 (Homo sapiens (Human), UniProt P11712)
# Sequence (P11712 whole entry): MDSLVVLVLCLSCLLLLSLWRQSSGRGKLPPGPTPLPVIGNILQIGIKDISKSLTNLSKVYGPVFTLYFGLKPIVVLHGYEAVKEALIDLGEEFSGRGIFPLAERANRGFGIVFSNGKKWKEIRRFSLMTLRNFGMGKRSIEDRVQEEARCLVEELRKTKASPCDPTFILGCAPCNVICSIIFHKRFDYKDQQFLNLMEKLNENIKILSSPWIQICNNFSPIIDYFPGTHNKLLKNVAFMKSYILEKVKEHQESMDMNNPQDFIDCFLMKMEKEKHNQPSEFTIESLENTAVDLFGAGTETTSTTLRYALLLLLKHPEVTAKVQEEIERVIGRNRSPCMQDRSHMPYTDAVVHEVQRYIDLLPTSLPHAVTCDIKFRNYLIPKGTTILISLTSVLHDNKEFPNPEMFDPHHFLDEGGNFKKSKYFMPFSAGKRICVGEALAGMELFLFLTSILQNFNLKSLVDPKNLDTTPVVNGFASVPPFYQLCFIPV
Measured metric: pIC50
Give bare numbers, as −log10 of the molar value.

For the compound shown here, COc1ccc2c3c([nH]c2c1)[C@H](CC(C)C)N1C(=O)[C@H](CCC(=O)OC(C)(C)C)NC(=O)[C@@H]1C3 [Ko143, reference compound] , give the reported pIC50. 5.22

----------
# Assay text: In vivo pharmacokinetic profile in Sprague-Dawley rats
# Test parameters: Sprague-Dawley, rat, plasma, PO-JVC, 20 mg/kg
Measured metric: Cmax (µM)
Give bare numbers, in µM.

For the compound shown here, `COc1ccc2c3c([nH]c2c1)[C@H](CC(C)C)N1C(=O)[C@H](C)NC(=O)[C@@H]1C3` , give the reported Cmax. 10.1

----------
# Assay system: BCRP efflux transporter (Homo sapiens (Human))
# Sequence (Q9UNQ0 whole entry): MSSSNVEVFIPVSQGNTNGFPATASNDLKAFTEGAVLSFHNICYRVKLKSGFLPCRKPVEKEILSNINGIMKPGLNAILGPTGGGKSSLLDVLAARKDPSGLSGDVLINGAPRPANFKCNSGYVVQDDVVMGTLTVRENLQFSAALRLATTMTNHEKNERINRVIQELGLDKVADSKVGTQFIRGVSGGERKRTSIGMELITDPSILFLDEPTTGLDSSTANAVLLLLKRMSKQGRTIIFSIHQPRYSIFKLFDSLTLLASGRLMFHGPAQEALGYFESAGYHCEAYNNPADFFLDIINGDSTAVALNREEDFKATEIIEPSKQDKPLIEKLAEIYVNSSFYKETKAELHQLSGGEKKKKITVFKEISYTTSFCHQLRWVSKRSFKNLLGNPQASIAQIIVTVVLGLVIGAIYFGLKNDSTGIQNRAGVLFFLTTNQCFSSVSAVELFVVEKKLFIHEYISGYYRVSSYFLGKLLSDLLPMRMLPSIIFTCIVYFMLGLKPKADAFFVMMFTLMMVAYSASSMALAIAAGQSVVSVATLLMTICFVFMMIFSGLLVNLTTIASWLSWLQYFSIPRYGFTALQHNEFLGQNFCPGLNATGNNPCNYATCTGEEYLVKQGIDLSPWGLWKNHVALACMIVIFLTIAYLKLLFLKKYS
# Assay text: Bi-directional transport study in Caco-2 cells, inhibition of BCRP efflux of 3H-estrone-3-sulfate
# Test parameters: read-out: IC50 on BCRP efflux transporter; Caco-2 cells, substrate 3H-Estrone-3-sulfate (26 nM)
Hi there, I'd appreciate the recorded pIC50 for every entry that follows.
Numbers only, as −log10 of the molar value.

| Compound | Measured metric | Numeric readout |
| --- | --- | --- |
| COc1ccc2c3c([nH]c2c1)[C@H](CC(C)C)N1C(=O)[C@H](C)NC(=O)[C@@H]1C3 | pIC50 | 6.22 |

Alright, here's another molecule for you.
For the molecule shown here, `COc1cc2[nH]c3c(c2cc1C)C[C@H]1C(=O)N[C@@H](C)C(=O)N1[C@H]3CC(C)C` , give the reported pIC50. 5.70
